- test.name: Bioavailability in rat at 5 mg/kg, po
- Assay type: ADME, organism-based
- reported.conditions: in vivo
quantity.name: bioavailability (%)

(a) CCc1nc(N)nc(N)c1-c1ccc2c(c1)N(CCCO)C(=O)C(C)(c1cc(F)cc(F)c1)O2 (stereo not drawn)
(b) CCc1nc(N)nc(N)c1-c1ccc2c(c1)N(CCNC(C)=O)C(=O)C(C)(c1cc(F)cc(F)c1)O2 (stereo in doubt; 26)
(c) CCc1nc(N)nc(N)c1-c1ccc2c(c1)N(CCCOC)C(=O)C(C)(c1cc(F)cc(F)c1)O2 (racemic)
Rank the items above by bioavailability, largest value first. Return the labels ranked in the requested order, please.
a, b, c
(a: 44%, b: 8%, c: 0.4%)

###

- test.name: in vivo
- reported.conditions: rat, iv, 1 mg/kg
quantity.name: Vd (L/kg)

Guide cases for Vd, answers given:
# compound, readout.units, Vd
records = [
    ("CCc1nc(N)nc(N)c1-c1ccc2c(c1)N(CCCOC(F)(F)F)C(=O)C(C)(c1cc(F)cc(F)c1)O2 (configuration not stated)", "L/kg", 6.3),
    ("CCc1nc(N)nc(N)c1-c1ccc2c(c1)N(CCCC(F)(F)F)C(=O)[C@](C)(c1cc(F)cc(F)c1)O2", "L/kg", 5.7),
    ("CCc1nc(N)nc(N)c1-c1ccc2c(c1)N(CCCC#N)C(=O)C(C)(c1cc(F)cc(F)c1)O2 (configuration not stated)", "L/kg", 1.9),
    ("CCc1nc(N)nc(N)c1-c1ccc2c(c1)N(CCO)C(=O)C(C)(c1cc(F)cc(F)c1)O2 (configuration not stated)", "L/kg", 3.3),
]

(A) CCc1nc(N)nc(N)c1-c1ccc2c(c1)N(CCNC(=O)OC)C(=O)C(C)(c1cc(F)cc(F)c1)O2 (configuration not stated)
(B) CCc1nc(N)nc(N)c1-c1ccc2c(c1)N(CCCCO)C(=O)C(C)(c1cc(F)cc(F)c1)O2 (configuration not stated)
(C) CCc1nc(N)nc(N)c1-c1ccc2c(c1)N(CCCC(F)(F)F)C(=O)C(C)(c1cc(F)cc(F)c1)O2 (racemic)
Please list the entries, largest Vd first. Return the labels ranked in the requested order, please.
C, A, B

###

- test.name: in vivo
- reported.conditions: rat, po, 10 mg/kg
quantity.name: bioavailability (%)

Guide cases for bioavailability, answers given:
# compound, bioavailability (%)
rows = [
    ("CCc1nc(N)nc(N)c1-c1ccc2c(c1)N(CCCC#N)C(=O)C(C)(c1cc(F)cc(F)c1)O2 (stereo unspecified)", 12),
    ("CCc1nc(N)nc(N)c1-c1ccc2c(c1)N(CCCC(F)(F)F)C(=O)[C@](C)(c1cc(F)cc(F)c1)O2", 74),
    ("CCc1nc(N)nc(N)c1-c1ccc2c(c1)N(CCCCO)C(=O)C(C)(c1cc(F)cc(F)c1)O2 (stereo unspecified)", 7),
    ("CCc1nc(N)nc(N)c1-c1ccc2c(c1)N(CCCOC(F)(F)F)C(=O)C(C)(c1cc(F)cc(F)c1)O2 (stereo unspecified)", 28),
]

(I) CCc1nc(N)nc(N)c1-c1ccc2c(c1)N(CCCC(F)(F)F)C(=O)C(C)(c1cc(F)cc(F)c1)O2 (racemic)
(II) CCc1nc(N)nc(N)c1-c1ccc2c(c1)N(CCNC(=O)OC)C(=O)C(C)(c1cc(F)cc(F)c1)O2 (stereo unspecified)
Which shows the larger bioavailability value: I or II ? Return value: the label identifying the chosen record.
II

###

- test.name: Volume of distribution at steady state in rat at 1 mg/kg, iv or 5 mg/kg, po
- Assay type: ADME, organism-based
- reported.conditions: in vivo, read-out: Vdss
quantity.name: Vd (L/kg)

Guide cases for Vd, answers given:
# compound, Vd / L/kg
rows = [
    ("CCc1nc(N)nc(N)c1-c1ccc2c(c1)N(CCCOC)C(=O)C(C)(c1cc(F)cc(F)c1)O2 (racemic)", 4.5),
    ("CCc1nc(N)nc(N)c1-c1ccc2c(c1)N(CCNC(=O)CO)C(=O)C(C)(c1cc(F)cc(F)c1)O2 (stereo not given)", 2.9),
    ("CCc1nc(N)nc(N)c1-c1ccc2c(c1)N(CCC(=O)NC)C(=O)C(C)(c1cc(F)cc(F)c1)O2 (stereo not given)", 2.1),
]

(I) CCc1nc(N)nc(N)c1-c1ccc2c(c1)N(CCNC(C)=O)C(=O)C(C)(c1cc(F)cc(F)c1)O2 (stereo in doubt; 26)
(II) CCc1nc(N)nc(N)c1-c1ccc2c(c1)N(CCCO)C(=O)C(C)(c1cc(F)cc(F)c1)O2 (stereo not given)
Which shows the larger Vd value: I or II ? Return value: the label identifying the chosen record.
II
(II: 3.1 L/kg, I: 2.1 L/kg)

###

- test.name: in vivo
- reported.conditions: rat, po, 10 mg/kg
quantity.name: Cmax (ng/mL)

Guide cases for Cmax, answers given:
# compound, readout.units, measured.number
measured = [
    ("CCc1nc(N)nc(N)c1-c1ccc2c(c1)N(CCCC(F)(F)F)C(=O)C(C)(c1cc(F)cc(F)c1)O2 (racemic)", "ng/mL", 160),
    ("CCc1nc(N)nc(N)c1-c1ccc2c(c1)N(CCCC#N)C(=O)C(C)(c1cc(F)cc(F)c1)O2 (stereo unspecified)", "ng/mL", 237),
    ("CCc1nc(N)nc(N)c1-c1ccc2c(c1)N(CCCC(F)(F)F)C(=O)[C@](C)(c1cc(F)cc(F)c1)O2", "ng/mL", 380),
]

(a) CCc1nc(N)nc(N)c1-c1ccc2c(c1)N(CCCCO)C(=O)C(C)(c1cc(F)cc(F)c1)O2 (stereo unspecified)
(b) CCc1nc(N)nc(N)c1-c1ccc2c(c1)N(CCNC(=O)OC)C(=O)C(C)(c1cc(F)cc(F)c1)O2 (stereo unspecified)
Which shows the larger Cmax value: a or b ? Return value: the label identifying the chosen record.
b

###

- test.name: Bioavailability in dog at 5 mg/kg, po
- Type: ADME, organism-based, Canis lupus familiaris
- reported.conditions: in vivo
quantity.name: bioavailability (%)
Output spec: scalar in %, unitless text.

Data point: CCc1nc(N)nc(N)c1-c1ccc2c(c1)N(CCCC(F)(F)F)C(=O)[C@](C)(c1cc(F)cc(F)c1)O2 ; bioavailability = 19

###

- test.name: physchem
- reported.conditions: aqueous, pH 6.5, Solubility
quantity.name: solubility (µg/mL)

(1) CCc1nc(N)nc(N)c1-c1ccc2c(c1)N(CCNC(C)=O)C(=O)C1(CC1)O2
(2) CCc1nc(N)nc(N)c1-c1ccc2c(c1)N(CCCOC)C(=O)C(CC)(CC)O2
For 1 and 2 , which recorded solubility is lower? Return value: the label identifying the chosen record.
2

###

- test.name: Cmax in rat at 1 mg/kg, iv or 5 mg/kg, po
- Type: ADME, organism-based
- reported.conditions: in vivo
quantity.name: Cmax (ng/mL)

# molecule, measured.number
data = [
    ("CCc1nc(N)nc(N)c1-c1ccc2c(c1)N(CCCO)C(=O)C(C)(c1cc(F)cc(F)c1)O2 (stereo not drawn)", 180),
]

(I) CCc1nc(N)nc(N)c1-c1ccc2c(c1)N(CCCOC)C(=O)C(C)(c1cc(F)cc(F)c1)O2 (racemic)
(II) CCc1nc(N)nc(N)c1-c1ccc2c(c1)N(CCNC(C)=O)C(=O)C(C)(c1cc(F)cc(F)c1)O2 (stereo in doubt; 26)
Which shows the larger Cmax value: I or II ? Return value: the label identifying the chosen record.
II
(II: 220 ng/mL, I: 23 ng/mL)

###

- test.name: Bioavailability in rat at […], po
- Assay type: ADME, organism-based
- reported.conditions: in vivo
quantity.name: bioavailability (%)

(1) CCOCCCN1C(=O)C(C)(c2cc(F)cc(F)c2)Oc2ccc(-c3c(N)nc(N)nc3CC)cc21 (configuration not stated)
(2) CCNC(=O)CN1C(=O)C(C)(c2cc(F)cc(F)c2)Oc2ccc(-c3c(N)nc(N)nc3CC)cc21 (configuration not stated)
For 1 and 2 , which recorded bioavailability is lower? Return value: the label identifying the chosen record.
1
(1: 0%, 2: 14%)

###

- test.name: physchem
- reported.conditions: aqueous, pH 6.5, Solubility
quantity.name: solubility (µg/mL)

(1) CCc1nc(N)nc(N)c1-c1ccc2c(c1)N(CCNC(C)=O)C(=O)C(C)(c1cccc(Cl)c1)O2 (racemic)
(2) CCc1nc(N)nc(N)c1-c1ccc2c(c1)N(CCNC(C)=O)C(=O)C(C)(c1cccc(C(F)(F)F)c1)O2 (racemic)
For 1 and 2 , which recorded solubility is lower? Return value: the label identifying the chosen record.
2
(2: 12 µg/mL, 1: 133 µg/mL)

###

- test.name: physchem
- reported.conditions: aqueous, pH 6.5, Solubility
quantity.name: solubility (µg/mL)

# compound, solubility [µg/mL]
data = [
    ("CCc1nc(N)nc(N)c1-c1ccc2c(c1)N(CCCCO)C(=O)C(C)(c1cc(F)cc(F)c1)O2 (stereo not given)", 59),
    ("CCc1nc(N)nc(N)c1-c1ccc2c(c1)N(CCCOC)C(=O)C(CC)(c1cc(F)cc(F)c1)O2 (racemic)", 2.6),
    ("CCc1nc(N)nc(N)c1-c1ccc2c(c1)N(CCNC(C)=O)C(=O)[C@@](C)(c1ccccc1)O2", 40),
    ("CCc1nc(N)nc(N)c1-c1ccc2c(c1)N(CCCOC)C(=O)C(C)(c1ccc(F)c(F)c1)O2 (racemic)", 13),
    ("CCc1nc(N)nc(N)c1-c1ccc2c(c1)N(CCC(=O)NC)C(=O)C(C)(c1cc(F)cc(F)c1)O2 (stereo not given)", 133),
    ("CCOCCCN1C(=O)C(C)(c2cc(F)cc(F)c2)Oc2ccc(-c3c(N)nc(N)nc3CC)cc21 (stereo not given)", 59),
]

(1) CCc1nc(N)nc(N)c1-c1ccc2c(c1)N(CCCO)C(=O)C(C)(c1cc(F)cc(F)c1)O2 (stereo not given)
(2) CCc1nc(N)nc(N)c1-c1ccc2c(c1)N(CCNC(C)=O)C(=O)[C@](C)(c1ccccc1)O2
(3) CCc1nc(N)nc(N)c1-c1ccc2c(c1)N(CCCC(F)(F)F)C(=O)C(C)(c1cc(F)cc(F)c1)O2 (racemic)
Please list the entries, largest solubility first. Return the labels ranked in the requested order, please.
2, 1, 3
